Test system: tracheal specimens excised from guinea pigs
Test: Inhibitory effect on KCl-induced contraction of tracheal specimens excised from guinea pigs (Magnus tube)
Assay type: cell-based
Settings: Cavia porcellus; dose required for relaxing KCl-induced contraction to 50 %; final KCl concentration: 20 mM; 37 °C; compounds other than acid addition salts used as hydrochloride; 3 specimens per group; read-out: ED₅₀ Effect on KCl-induced contraction
pEC50: −log10 of the molar value. Where a name gives a salt, the structure may show the parent alone.
VALUE_KIND: pEC50

CCOc1ccc(S(=O)(=O)NCCNCc2ccc(OC)cc2)c2cccnc12    3.88

P. CCOc1ccc(S(=O)(=O)NCCNCCc2ccccc2)c2cccnc12
Q. O=S(=O)(NCCN1CCN(Cc2ccc3c(c2)OCO3)CC1)c1cccc2c(O)nccc12 [(34), hydrochloride]
R. CCOc1ccc(S(=O)(=O)NCCN2CCCNCC2)c2cccnc12
Exam item: Endpoint returns the given compounds ordered by ascending pEC50. Write the labels out in the order the request specifies.
Marked response: P, R, Q
(P: 3.95, R: 4.29, Q: 4.72)

###

Test system: tracheal specimens excised from guinea pigs
Assay: Inhibitory effect on KCl-induced contraction of tracheal specimens excised from guinea pigs (Magnus tube)
Format: cell-based
Details: Cavia porcellus; dose required for relaxing KCl-induced contraction to 50 %; final KCl concentration: 20 mM; 37 °C; compounds other than acid addition salts used as hydrochloride; 3 specimens per group; read-out: ED₅₀ Effect on KCl-induced contraction
VALUE_KIND: EC50 (µM)

Guide cases for EC50, answers given:
CCOc1ccc(S(=O)(=O)NCCNCCc2ccc(C(F)(F)F)cc2)c2cccnc12    75
CCOc1ccc(S(=O)(=O)NCCN2CCN(CCc3ccc(OC)c(OC)c3)CC2)c2cccnc12    120
CCOc1ccc(S(=O)(=O)NCCNCc2cccc(Cl)c2)c2cccnc12    128
CCOc1ccc(S(=O)(=O)NCCN2CCCN(Cc3ccc(Cl)cc3)CC2)c2cccnc12    81

I. O=S(=O)(NCCNCc1ccc2c(c1)OCO2)c1cccc2ncccc12
II. CCOc1ccc(S(=O)(=O)NCCNCCc2ccc3c(c2)OCO3)c2cccnc12
Exam item: Quick one: lower EC50, I or II ? Write down the label attached to your selection.
Marked response: II
(II: 38 µM, I: 86 µM)
